System: Escherichia coli TOP10;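 also: peptides expressed intracellularly from a pBAD plasmid library in pooled LB shake-flask culture, induced with 0.3% L-arabinose, DNA abundance read by NGS, three biological replicates, DESeq2 with apeglm shrinkage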
Protocol text: shrunken log2 fold change of peptide-encoding DNA abundance (4.5 h post-induction vs induction); higher = less antimicrobial activity (less host growth inhibition)
Test settings: time post-induction: 4.5 h; library: site-saturation at positions 5, 18, 19, 20
Output yes (1) for shrunken log2 fold change not less than -0.1; output no (0) otherwise.

(Q) Could you verify whether the entry `RRIRRRPPRLPRPRPRPITQPRP` shows shrunken log2 fold change of no less than -0.1?
(A) yes (1)

(Q) Could you please find out whether `RRIRRRPPRLPRPRPRPNWLPRP` has shrunken log2 fold change that meets -0.1 or exceeds it?
(A) yes (1)

(Q) Is it the case that `RRIRQRPPRLPRPRPRPTYNPRP` has shrunken log2 fold change reaching or exceeding -0.1?
(A) no (0)

(Q) Determine whether measured shrunken log2 fold change meets or exceeds -0.1 for `RRIRKRPPRLPRPRPRPKERPRP`
(A) yes (1)

(Q) For this sequence, is measured shrunken log2 fold change -0.1 or higher? `RRIRHRPPRLPRPRPRPIIKPRP`
(A) no (0)

(Q) Answer whether shrunken log2 fold change of `RRIRHRPPRLPRPRPRPVPFPRP` is greater than or equal to -0.1.
(A) no (0)

(Q) Please check the record `RRIRWRPPRLPRPRPRPHKCPRP` and state if its shrunken log2 fold change is at or above -0.1.
(A) yes (1)

(Q) In plain terms: is recorded shrunken log2 fold change at least -0.1 for `RRIRHRPPRLPRPRPRPLCLPRP` ?
(A) no (0)

(Q) Determine whether measured shrunken log2 fold change meets or exceeds -0.1 for `RRIRARPPRLPRPRPRPLQDPRP`
(A) yes (1)

(Q) Hi, just wondering whether `RRIRLRPPRLPRPRPRPYHGPRP` shows shrunken log2 fold change of -0.1 or higher.
(A) no (0)

(Q) Reported shrunken log2 fold change at or above -0.1? `RRIRDRPPRLPRPRPRPWAAPRP`
(A) yes (1)

(Q) Given the entry `RRIRQRPPRLPRPRPRPIFIPRP` , answer whether its shrunken log2 fold change meets or surpasses -0.1.
(A) no (0)

(Q) Textbook exercise: given the entry `RRIRRRPPRLPRPRPRPDDGPRP` , state whether its shrunken log2 fold change is greater than or equal to -0.1.
(A) no (0)

(Q) I'd appreciate it if you could say whether `RRIRNRPPRLPRPRPRPDVIPRP` has shrunken log2 fold change at least equal to -0.1.
(A) no (0)

(Q) In plain terms: is recorded shrunken log2 fold change at least -0.1 for `RRIRDRPPRLPRPRPRPAVKPRP` ?
(A) yes (1)

Numbers sourced from the supplement of paper PMC9112550.
